Biological target: Caspase-4 (Homo sapiens, UniProt P49662)
Construct: mixing the compounds with the respective active caspases; purchased BioVision K154-100
Sequence (P49662 81-270 limits assumed): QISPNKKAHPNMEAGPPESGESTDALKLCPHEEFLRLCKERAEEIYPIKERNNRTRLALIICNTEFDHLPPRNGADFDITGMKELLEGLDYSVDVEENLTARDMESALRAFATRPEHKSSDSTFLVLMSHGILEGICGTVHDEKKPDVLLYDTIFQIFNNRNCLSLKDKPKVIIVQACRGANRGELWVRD
Sequence (P49662 290-377 limits assumed): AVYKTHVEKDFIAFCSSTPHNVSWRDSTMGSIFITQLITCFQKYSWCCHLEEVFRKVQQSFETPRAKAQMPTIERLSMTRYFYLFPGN
Test: Caspase-4 inhibitor screening assay (BioVision kit, LEVD-AFC)
Assay type: biochemical
Details: read-out: % Inhibition at 100 uM Casp4
Quick list: inhibition at 100 µM per entry.

- compound: "CS(=O)(=O)/C=C/[C@H](CC(=O)O)NC(=O)[C@H]1CCC(=O)N1"
  value.units: "%"
  inhibition at 100 µM: 0
- compound: "CC(C)[C@H](NC(=O)[C@H](CCC(=O)O)NC(=O)[C@H](Cc1c[nH]c2ccccc12)NC(=O)OCc1ccccc1)C(=O)N[C@H](/C=C/S(C)(=O)=O)CC(=O)O"
  value.units: "%"
  inhibition at 100 µM: 100
- compound: "CS(=O)(=O)/C=C/[C@H](CC(=O)O)NC(=O)[C@H]1CCCN1C(=O)[C@@H](NC(=O)[C@H](CC(=O)O)NC(=O)OCc1ccccc1)c1ccccc1"
  value.units: "%"
  inhibition at 100 µM: 100
- compound: "CCOC(=O)/C=C/[C@H](CC(=O)O)NC(=O)[C@H]1CCCN1C(=O)[C@@H](NC(=O)c1ccc2ccccc2n1)C(C)(C)C"
  value.units: "%"
  inhibition at 100 µM: 100
- compound: "CC(C)(C)[C@H](NC(=O)c1ccc2ncccc2c1)C(=O)N1CCCC1C(=O)N[C@H](/C=C/S(C)(=O)=O)CC(=O)O (stereo in doubt)"
  value.units: "%"
  inhibition at 100 µM: 100
- compound: "CC(C)(C)[C@@H](NC(=O)[C@H](CC(=O)O)NC(=O)OCc1ccccc1)C(=O)N1CC[C@@H]1C(=O)N[C@H](/C=C/S(C)(=O)=O)CC(=O)O"
  value.units: "%"
  inhibition at 100 µM: 100
- compound: "CCOC(=O)/C=C/[C@H](CC(=O)O)NC(=O)[C@@H](NC(=O)[C@@H](NC(=O)[C@H](CC(=O)O)NC(=O)OCc1ccccc1)c1ccccc1)C(C)C"
  value.units: "%"
  inhibition at 100 µM: 98

###

Biological target: Caspase-9 (Homo sapiens, UniProt P55211)
Construct: purchased BioVision K159-100
Sequence (P55211 1-315 limits assumed): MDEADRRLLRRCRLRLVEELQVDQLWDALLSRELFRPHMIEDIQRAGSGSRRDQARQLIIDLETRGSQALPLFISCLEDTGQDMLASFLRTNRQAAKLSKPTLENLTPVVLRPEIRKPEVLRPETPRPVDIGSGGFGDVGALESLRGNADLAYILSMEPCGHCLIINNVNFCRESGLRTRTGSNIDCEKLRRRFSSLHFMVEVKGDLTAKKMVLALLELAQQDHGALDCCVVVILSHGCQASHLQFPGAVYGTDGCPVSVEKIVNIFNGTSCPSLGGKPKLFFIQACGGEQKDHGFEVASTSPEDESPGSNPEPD
Sequence (P55211 331-416 limits assumed): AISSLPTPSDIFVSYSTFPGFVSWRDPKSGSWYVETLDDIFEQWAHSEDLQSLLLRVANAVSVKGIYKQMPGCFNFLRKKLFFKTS
Experiment: Caspase-9 inhibitor screening assay (BioVision kit, LEHD-AFC)
Type: biochemical
Settings: read-out: IC50 Casp9
pIC50: −log10 of the molar value.
Measured pIC50, listed per entry.
experimental.endpoint: pIC50

- compound: "CCOC(=O)/C=C/[C@H](CC(=O)O)NC(=O)[C@@H](NC(=O)[C@H](CCC(=O)O)NC(=O)[C@@H](NC(=O)OCc1ccccc1)C(C)C)c1ccccc1 [Compound 126, Z-Val-Glu-Phg-Asp-Ethyl Vinyl ester]"
  experimental.endpoint: "pIC50"
  endpoint.result: "< 4.00"
- compound: "CC(C)(C)[C@H](NC(=O)c1ccc2ncccc2c1)C(=O)N1CCCC1C(=O)N[C@H](/C=C/S(C)(=O)=O)CC(=O)O (stereo in doubt) [Compound 10]"
  experimental.endpoint: "pIC50"
  endpoint.result: 5.49
- compound: "CC(C)[C@H](NC(=O)OCc1ccccc1)C(=O)N[C@H](/C=C/S(C)(=O)=O)CC(=O)O [Compound 3, Z-Val-Asp methyl vinyl sulfone]"
  experimental.endpoint: "pIC50"
  endpoint.result: "< 4.00"

###

Target: Caspase-5 (Homo sapiens, UniProt P51878)
Construct: mixing the compounds with the respective active caspases; purchased BioVision K155-100
Sequence (P51878 137-327 limits assumed): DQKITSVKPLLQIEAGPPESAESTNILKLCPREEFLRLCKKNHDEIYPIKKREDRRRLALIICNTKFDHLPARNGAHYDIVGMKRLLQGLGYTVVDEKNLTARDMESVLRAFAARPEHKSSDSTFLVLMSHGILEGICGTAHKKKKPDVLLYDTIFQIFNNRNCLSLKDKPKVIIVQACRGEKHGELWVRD
Sequence (P51878 347-434 limits assumed): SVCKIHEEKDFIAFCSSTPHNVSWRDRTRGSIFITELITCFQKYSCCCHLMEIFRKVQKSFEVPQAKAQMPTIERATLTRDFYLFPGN
Experiment: Caspase-5 inhibitor screening assay (BioVision kit, WEHD-AFC)
Assay type: biochemical
Settings: read-out: % Inhibition at 100 uM Casp5
experimental.endpoint: inhibition at 100 µM

- compound: "CC(C)[C@H](NC(=O)[C@@H](N)Cc1ccc(O)cc1)C(=O)N[C@@H](C)C(=O)N[C@H](/C=C/S(C)(=O)=O)CC(=O)O [Compound 42, Tyr-Val-Ala-Asp methyl vinyl sulfone]"
  endpoint.result: "93%"
- compound: "CCOC(=O)/C=C/[C@H](CC(=O)O)NC(=O)[C@H]1CCCN1C(=O)[C@@H](NC(=O)c1ccc2ccccc2n1)C(C)(C)C [Compound 118]"
  endpoint.result: "99%"
- compound: "CC(C)(C)[C@H](NC(=O)c1ccc2ncccc2n1)C(=O)N1CCCC1C(=O)N[C@H](/C=C/S(C)(=O)=O)CC(=O)O (stereo in doubt) [Compound 8]"
  endpoint.result: "97%"
- compound: "CC(C)(C)[C@H](NC(=O)c1ccc2ccccc2n1)C(=O)N1CCC[C@@H]1C(=O)N[C@H](/C=C/S(C)(=O)=O)CC(=O)O [Compound 6]"
  endpoint.result: "99%"
- compound: "CC(C)[C@H](NC(=O)c1ccc2ccccc2n1)C(=O)N[C@H](/C=C/S(C)(=O)=O)CC(=O)O [Compound 16]"
  endpoint.result: "10%"
- compound: "CC(C)[C@H](NC(=O)OCc1ccccc1)C(=O)N[C@H](/C=C/S(C)(=O)=O)CC(=O)O [Compound 3, Z-Val-Asp methyl vinyl sulfone]"
  endpoint.result: "0%"

###

Molecular target: Caspase-1 (Homo sapiens)
Construct: mixing the compounds with the respective active caspases; purchased BioVision K151-100
Sequence (P29466 120-297 limits assumed): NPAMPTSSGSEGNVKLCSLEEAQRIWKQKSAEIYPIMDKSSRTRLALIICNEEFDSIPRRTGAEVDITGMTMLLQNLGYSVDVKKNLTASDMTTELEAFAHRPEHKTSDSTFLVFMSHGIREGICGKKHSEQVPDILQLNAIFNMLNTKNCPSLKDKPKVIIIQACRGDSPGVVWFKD
Sequence (P29466 317-404 limits assumed): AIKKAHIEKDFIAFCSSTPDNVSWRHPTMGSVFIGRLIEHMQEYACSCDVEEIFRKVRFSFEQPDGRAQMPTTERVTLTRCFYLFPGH
Test: Caspase-1 inhibitor screening assay (BioVision kit, YVAD-AFC)
Format: biochemical
Details: read-out: % Inhibition at 10 uM Casp1
Labels assigned by inhibition at 10 µM range: 0 = under 50%, 1 = from 50% up to 90%, 2 = 90% and over

- compound: "CCOC(=O)/C=C/[C@H](CC(=O)O)NC(=O)[C@@H](NC(=O)[C@@H](NC(=O)[C@H](CC(=O)O)NC(=O)OCc1ccccc1)c1ccccc1)C(C)C"
  group: 1
- compound: "CC(C)(C)[C@H](NC(=O)c1ccc(N)c(Cl)c1)C(=O)N1CCCC1C(=O)N[C@H](/C=C/S(C)(=O)=O)CC(=O)O (stereo in doubt)"
  group: 2
- compound: "CC(C)[C@H](NC(=O)OCc1ccccc1)C(=O)N[C@H](/C=C/S(C)(=O)=O)CC(=O)O"
  group: 0
- compound: "CCC(C)[C@H](NC(=O)[C@H](CCC(=O)O)NC(=O)[C@@H](NC(=O)OCc1ccccc1)C(C)C)C(=O)N[C@H](/C=C/S(C)(=O)=O)CC(=O)O (stereo partly shown)"
  group: 1
- compound: "CC(C)[C@H](NC(=O)[C@H](Cc1cn(C)c2ccccc12)NC(=O)[C@H](CC(=O)O)NC(=O)OCc1ccccc1)C(=O)N[C@H](/C=C/S(C)(=O)=O)CC(=O)O"
  group: 1
- compound: "CS(=O)(=O)/C=C/[C@H](CC(=O)O)NC(=O)[C@H](CCC(=O)O)NC(=O)c1ccc2ccccc2n1"
  group: 0
- compound: "CC(C)(C)[C@@H](NC(=O)[C@H](CC(=O)O)NC(=O)OCc1ccccc1)C(=O)N1CC[C@@H]1C(=O)N[C@H](/C=C/S(C)(=O)=O)CC(=O)O"
  group: 0
- compound: "CC(C)(C)[C@H](NC(=O)c1ccc2ccccc2n1)C(=O)N1CCC[C@@H]1C(=O)N[C@H](/C=C/S(C)(=O)=O)CC(=O)O"
  group: 2
- compound: "CCOC(=O)/C=C/[C@H](CC(=O)O)NC(=O)[C@H]1CCCN1C(=O)[C@@H](NC(=O)c1ccc2ccccc2n1)C(C)(C)C"
  group: 2
- compound: "CC(C)[C@H](NC(=O)[C@@H](N)Cc1ccc(O)cc1)C(=O)N[C@@H](C)C(=O)N[C@H](/C=C/S(C)(=O)=O)CC(=O)O"
  group: 0

Reference source for all entries: patent US10975119B2
